# assayedTarget: LRRK2 (Homo sapiens, UniProt Q5S007, G2019S)
# Construct: purchased Invitrogen PV4882 (lot 567054A)
# Sequence (Q5S007 whole entry G2019S): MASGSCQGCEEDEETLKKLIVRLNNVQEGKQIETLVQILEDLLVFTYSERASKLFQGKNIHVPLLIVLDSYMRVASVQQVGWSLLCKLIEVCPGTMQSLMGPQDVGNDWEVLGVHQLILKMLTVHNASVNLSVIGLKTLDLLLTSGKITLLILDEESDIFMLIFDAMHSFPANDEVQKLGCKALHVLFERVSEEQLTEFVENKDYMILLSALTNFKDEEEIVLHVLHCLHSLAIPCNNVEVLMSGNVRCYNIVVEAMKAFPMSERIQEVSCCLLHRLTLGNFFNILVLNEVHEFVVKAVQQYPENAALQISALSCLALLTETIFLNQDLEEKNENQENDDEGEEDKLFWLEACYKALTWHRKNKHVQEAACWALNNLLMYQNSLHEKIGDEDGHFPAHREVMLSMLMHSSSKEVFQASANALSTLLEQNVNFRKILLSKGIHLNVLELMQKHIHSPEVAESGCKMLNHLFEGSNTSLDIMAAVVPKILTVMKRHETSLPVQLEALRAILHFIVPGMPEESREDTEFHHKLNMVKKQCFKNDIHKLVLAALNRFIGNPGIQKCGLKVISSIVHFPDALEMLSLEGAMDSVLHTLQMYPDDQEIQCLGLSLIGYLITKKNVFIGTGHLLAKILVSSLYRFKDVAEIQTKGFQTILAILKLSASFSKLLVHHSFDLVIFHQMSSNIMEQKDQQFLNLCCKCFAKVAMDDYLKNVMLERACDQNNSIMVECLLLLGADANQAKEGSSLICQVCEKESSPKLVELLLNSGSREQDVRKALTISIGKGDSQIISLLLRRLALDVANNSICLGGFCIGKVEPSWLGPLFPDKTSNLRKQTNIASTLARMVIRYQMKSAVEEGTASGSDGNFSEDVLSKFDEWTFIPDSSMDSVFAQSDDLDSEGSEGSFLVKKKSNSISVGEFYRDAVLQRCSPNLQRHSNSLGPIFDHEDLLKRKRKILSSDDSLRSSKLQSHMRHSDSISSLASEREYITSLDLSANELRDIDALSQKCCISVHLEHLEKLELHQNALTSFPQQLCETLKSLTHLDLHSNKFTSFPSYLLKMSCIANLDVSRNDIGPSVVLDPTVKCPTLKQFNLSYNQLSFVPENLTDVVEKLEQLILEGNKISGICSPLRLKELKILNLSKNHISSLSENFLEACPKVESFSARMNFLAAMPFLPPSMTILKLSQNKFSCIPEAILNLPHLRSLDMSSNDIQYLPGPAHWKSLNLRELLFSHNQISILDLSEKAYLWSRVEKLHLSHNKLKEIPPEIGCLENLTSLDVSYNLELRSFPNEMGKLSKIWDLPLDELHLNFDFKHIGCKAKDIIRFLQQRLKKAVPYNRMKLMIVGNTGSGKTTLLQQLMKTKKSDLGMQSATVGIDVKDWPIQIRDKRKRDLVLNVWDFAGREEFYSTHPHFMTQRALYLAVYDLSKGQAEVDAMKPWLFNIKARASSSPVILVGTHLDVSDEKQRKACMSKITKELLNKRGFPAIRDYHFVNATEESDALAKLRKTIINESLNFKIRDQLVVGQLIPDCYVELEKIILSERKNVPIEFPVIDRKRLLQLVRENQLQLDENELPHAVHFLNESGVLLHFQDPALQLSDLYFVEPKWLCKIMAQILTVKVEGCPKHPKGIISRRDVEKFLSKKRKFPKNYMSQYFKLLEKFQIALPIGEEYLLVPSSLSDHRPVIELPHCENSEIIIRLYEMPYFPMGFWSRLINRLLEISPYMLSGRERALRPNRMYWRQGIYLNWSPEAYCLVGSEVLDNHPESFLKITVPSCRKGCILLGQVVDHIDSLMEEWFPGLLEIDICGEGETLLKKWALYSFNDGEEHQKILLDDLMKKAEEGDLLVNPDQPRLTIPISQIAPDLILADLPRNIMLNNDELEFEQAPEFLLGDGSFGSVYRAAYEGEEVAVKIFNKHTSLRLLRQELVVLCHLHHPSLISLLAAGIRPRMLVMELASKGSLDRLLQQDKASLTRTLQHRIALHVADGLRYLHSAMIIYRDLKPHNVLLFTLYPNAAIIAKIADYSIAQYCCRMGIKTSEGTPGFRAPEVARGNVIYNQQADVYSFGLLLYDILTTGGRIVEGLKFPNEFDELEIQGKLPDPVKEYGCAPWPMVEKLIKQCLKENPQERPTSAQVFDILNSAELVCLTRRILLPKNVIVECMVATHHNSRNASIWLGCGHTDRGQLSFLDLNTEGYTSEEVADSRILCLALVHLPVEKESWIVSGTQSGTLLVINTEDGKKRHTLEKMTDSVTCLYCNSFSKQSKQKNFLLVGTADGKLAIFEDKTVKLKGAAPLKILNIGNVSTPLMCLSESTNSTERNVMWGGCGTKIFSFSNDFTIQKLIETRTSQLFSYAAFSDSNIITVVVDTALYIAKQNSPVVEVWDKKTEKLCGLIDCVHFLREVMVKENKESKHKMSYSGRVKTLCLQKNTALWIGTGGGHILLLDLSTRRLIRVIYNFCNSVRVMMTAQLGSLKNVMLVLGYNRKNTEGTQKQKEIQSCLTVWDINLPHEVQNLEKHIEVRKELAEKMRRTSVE
# testSummary: In Vitro LRRK2 Assay (LabChip 3000, fluorescently-labeled peptide substrate, ATP)
# Type: biochemical
# assayConditions: read-out: LRRK2 Ki (KI), Table 8
Criterion: Ki strictly less than 8 nM. Met: TRUE. Not met: FALSE.

{"compoundSmiles": "CNc1nc(Nc2cnn(C3CCN(CC(F)(F)F)CC3)c2C)ncc1C(F)(F)F", "assignedLabel": "TRUE"}

Say whether its Ki is strictly beneath 8 nM. Entry: `CNc1nc(Nc2cnn(-c3ccc(C(=O)N(C)C)cc3)c2C)ncc1C(F)(F)F`
TRUE

Does this molecule meet the criterion Ki < 8 nM? `CNc1nc(Nc2nn(C3CCN(C)CC3)cc2C)ncc1C(F)(F)F`
FALSE

Criterion: Ki strictly below 8 nM. Is it met by `CCNc1nc(Nc2cnn(CC(C)(C)O)c2C)ncc1C(F)(F)F` ?
TRUE

Item `CNc1nc(Nc2cn(-c3ccc(Cl)cc3)nc2C)ncc1C(F)(F)F` : Ki beneath 8 nM, strictly?
FALSE

Determine if `CNc1nc(Nc2cn(S(C)(=O)=O)nc2C)ncc1C(F)(F)F` shows Ki strictly lower than 8 nM.
TRUE

Just wondering, is Ki of `CNc1nc(Nc2cnn(C3CCN(C(=O)C4CC4)CC3)c2C)ncc1C(F)(F)F` below 8 nM?
TRUE

Below 8 nM on Ki? Entry `CNc1nc(Nc2cn(C3CN(C(C)C)C3)nc2C)ncc1C(F)(F)F`
FALSE

Ki strictly < 8 nM for this molecule? `CCNc1nc(Nc2cn(C3CCN(C(=O)C(C)C)CC3)nc2C)ncc1C(F)(F)F`
TRUE

Reference source for all entries: patent US8815882B2
